Source listed as the supplement of paper PMC13094657.

molecules and their reported cell viability
Test system: MDA-MB-231;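 note: viability of the cells left after supernatant collection, read with Deep Blue dye added for 4 h, as absorbance at 570 nm minus 600 nm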
Experiment: cell viability relative to vehicle unstimulated control (fraction); higher = more viable cells
Settings: pre-treatment time: 18 h then 24 h IFNg/TNF
Where a name gives a salt, the structure may show the parent alone.
quantity: cell viability

• CC(/C=C/C=C(\C)C(=O)O)=C\C=C\C=C(C)\C=C\C=C(/C)C(=O)O [Transcrocetin meglumine salt] (compound dose: 10 uM) = 1.02
• CC1(C)CC[C@]2(C(=O)O)[C@H](O)C[C@]3(C)C(=CC[C@@H]4[C@@]5(C)CC[C@H](O)C(C)(C)[C@@H]5CC[C@]43C)[C@H]2C1 [Echinocystic acid] (compound dose: 10 uM) = 1.03
• CC(=O)O[C@@]12CO[C@@H]1C[C@H](O)[C@@]1(C)C(=O)[C@H](O)C3=C(C)[C@@H](OC(=O)[C@H](O)[C@@H](NC(=O)OC(C)(C)C)c4ccccc4)C[C@@](O)([C@@H](OC(=O)c4ccccc4)[C@H]21)C3(C)C [Docetaxel] (compound dose: 10 uM) = 0.923
• C=C1CC[C@@H]2[C@](C)(CO)[C@H](O)CC[C@@]2(C)[C@@H]1/C=C/C1=CCOC1=O [14-Deoxy-11,12-didehydroandrographolide] (compound dose: 10 uM) = 0.857
• C=CC(C)(O)CCC=C(C)CCC=C(C)C (mixture of isomers) [Nerolidol] (compound dose: 10 uM) = 1.01
• COc1cc(C(C)=O)cc(OC)c1O [Acetosyringone] (compound dose: 10 uM) = 1.05
• CC12CCC(C1)C(C)(C)C2O (centres undefined) [Fenchyl alcohol] (compound dose: 10 uM) = 1.03
• O=c1cc(-c2ccc(O)c(O)c2)oc2c([C@@H]3O[C@H](CO)[C@@H](O)[C@H](O)[C@H]3O)c(O)cc(O)c12 [Orientin] (compound dose: 10 uM) = 0.922
• CC(/C=C/C=C(\C)C(=O)O[C@@H]1O[C@H](CO)[C@@H](O)[C@H](O)[C@H]1O)=C\C=C\C=C(C)\C=C\C=C(/C)C(=O)O[C@@H]1O[C@H](CO[C@@H]2O[C@H](CO)[C@@H](O)[C@H](O)[C@H]2O)[C@@H](O)[C@H](O)[C@H]1O [Crocin II] (compound dose: 10 uM) = 0.987
• C/C=C1/[C@H](O[C@@H]2O[C@H](CO)[C@@H](O)[C@H](O)[C@H]2O)OC=C(C(=O)OC)[C@H]1CC(=O)OCCc1ccc(O)c(O)c1 [Oleuropein] (compound dose: 10 uM) = 0.978
• C[C@@H]1CC[C@]2(C(=O)O[C@@H]3O[C@H](CO)[C@@H](O)[C@H](O)[C@H]3O)CC[C@]3(C)C(=CC[C@@H]4[C@@]5(C)CC[C@H](O[C@@H]6OC[C@H](O)[C@H](O)[C@H]6O)C(C)(C)[C@@H]5CC[C@]43C)[C@@H]2[C@]1(C)O [Ziyuglycoside I] (compound dose: 10 uM) = 0.947
• C[C@H]1[C@H](C)CC[C@]2(C(=O)O)CC[C@]3(C)C(=CC[C@@H]4[C@@]5(C)C[C@@H](O)[C@H](O)C(C)(C)[C@@H]5CC[C@]43C)[C@H]12 [Corosolic acid] (compound dose: 10 uM) = 1.07
• C/C=C(/C)C(=O)O[C@H]1C(C)=C[C@]23C(=O)[C@@H](C=C4COC(C)(C)O[C@H]4[C@]12O)[C@H]1[C@@H](C[C@H]3C)C1(C)C [Ingenol-5,20-acetonide-3-O-angelate] (compound dose: 10 uM) = 0.971
• C[C@H](CC[C@@H](O)C(C)(C)O)[C@H]1CC[C@@]2(C)[C@@H]3CC=C4[C@@H](CC[C@H](O[C@@H]5O[C@H](CO)[C@@H](O)[C@H](O)[C@H]5O)C4(C)C)[C@]3(C)[C@H](O)C[C@]12C [Mogroside I E1] (compound dose: 10 uM) = 0.906
• C[C@@H]1O[C@@H](O[C@H]2[C@H](OC(=O)[C@]34CCC(C)(C)C[C@H]3C3=CC[C@@H]5[C@@]6(C)C[C@H](O)[C@H](O[C@@H]7O[C@H](CO)[C@@H](O)[C@H](O)[C@H]7O)[C@](C)(CO)[C@@H]6CC[C@@]5(C)[C@]3(C)CC4)O[C@H](CO)[C@@H](O[C@@H]3OC[C@@H](O)[C@H](O)[C@H]3O)[C@@H]2O[C@@H]2OC[C@](O)(CO)[C@H]2O)[C@H](O)[C@H](O)[C@H]1O [Polygalasaponin V] (compound dose: 10 uM) = 0.992
• COC(=O)C1=CO[C@@H](O[C@@H]2O[C@H](CO[C@@H]3O[C@H](CO)[C@@H](O)[C@H](O)[C@H]3O)[C@@H](O)[C@H](O)[C@H]2O)[C@@H]2C(CO)=CC[C@H]12 [Genipin 1-β-D-gentiobioside] (compound dose: 10 uM) = 0.849
• C=C(C)[C@@H]1CC[C@]2(C(=O)O)CC[C@]3(C)[C@H](CC[C@@H]4[C@@]5(C)CC[C@H](O)C(C)(C)[C@@H]5CC[C@]43C)[C@@H]12 [Betulinic acid] (compound dose: 10 uM) = 0.993
• CC(C)C1=C[C@H]2[C@@H](CC[C@]2(C)O)[C@](C)(O)CC1 [Alismoxide] (compound dose: 10 uM) = 1.01
• COc1cc2c(=O)c3c(O)c([C@@H]4O[C@H](CO[C@@H]5OC[C@](O)(CO)[C@H]5O)[C@@H](O)[C@H](O)[C@H]4O)c(O)cc3oc2cc1O [Polygalaxanthone III] (compound dose: 10 uM) = 1
